assay: in vitro; conditions: male, CD-1, mouse, microsomes, CLint, calculated value in parentheses
ASSAY_ENDPOINT: microsomal CLint at 1 μM

- CCCCC/C=C\C/C=C\CCCCCCCC(=O)OCCNC(=O)CCCCCCCCCCCCCCC [Compound I-6]: 16.4 µL/min/mg
- CCCCCCCCCCCCCCCC(=O)NCCOC(=O)CCC(=O)OCC(COC(=O)CCCCCCC)OC(=O)CCCCCCC (stereo not drawn) [Compound I-3, PEA-Succinate-Glycerol-Di-Caprylic]: 13.8 µL/min/mg
- CCCCCCCCCCCCCCCC(=O)NCCOC(=O)CCC(=O)OC(COC(=O)CCC)COC(=O)CCC [Compound I-16]: 503 µL/min/mg

====

experiment: in vitro; settings: male, CD-1, mouse, microsomes, CLint
microsomal CLint at 1 μM for assorted compounds
ASSAY_ENDPOINT: microsomal CLint at 1 μM

* CCCCC/C=C\C/C=C\CCCCCCCC(=O)OCCNC(=O)CCCCCCCCCCCCCCC [Compound I-6] | < 23.1 µL/min/mg
* CC/C=C\C/C=C\C/C=C\C/C=C\C/C=C\CCCC(=O)OCCNC(=O)CCCCCCCCCCCCCCC [Compound I-5] | 23.6 µL/min/mg
* CCCCCCCCCCCCCCCC(=O)NCCOC(=O)CCC(=O)OC(CO)CO [Compound I-8] | > 1380 µL/min/mg
* CCCCCCCCCCCCCCCC(=O)NCCOC(=O)CCC(=O)OCC(COC(=O)CCC)OC(=O)CCC (stereo not shown) [Compound I-11] | 687 µL/min/mg
* CCCCCCCCCCCCCCCC(=O)NCCOC(=O)CCC(=O)OC[C@H]1O[C@@](CO)(O[C@H]2O[C@H](CO)[C@@H](O)[C@H](O)[C@H]2O)[C@@H](O)[C@@H]1O [Compound I-7] | 814 µL/min/mg
* CCCCCCCCCCCCCCCC(=O)NCCOC(=O)CCC(=O)OCC(O)CO (stereo not shown) [Compound I-9] | > 1380 µL/min/mg
* CCCCCCCCCCCCCCCC(=O)NCCOC(=O)CCC(=O)OCC(COC(=O)CCCCCCC)OC(=O)CCCCCCC (stereo not shown) [Compound I-3, PEA-Succinate-Glycerol-Di-Caprylic] | < 23.1 µL/min/mg
* CCCCCCCCCCCCCCCC(=O)NCCOC(=O)CCC [Compound I-2] | > 1380 µL/min/mg
* CCCCC/C=C\C/C=C\CCCCCCCC(=O)OCC(COC(=O)CCC(=O)OCCNC(=O)CCCCCCCCCCCCCCC)OC(=O)CCCCCCC/C=C\C/C=C\CCCCC (stereo not shown) [Compound I-13] | 29.1 µL/min/mg
* CCCCCCCCCCCCCCCC(=O)NCCOC(=O)CCC(=O)OC(COC(=O)CCC)COC(=O)CCC [Compound I-16] | > 139 µL/min/mg

====

assay: Simulated intestinal fluid (SIF) stability in the presence of various enzymes; type: in vitro ADME; settings: SIF + Elastase, 15 min, 1 μM
# binarize % Remaining of Initial (n = 1): threshold 70% inclusive, high side 1.0, low side 0.0

- CCCCCCCCCCCCCCCC(=O)NCCOC(=O)CCC(=O)OC[C@H]1O[C@@](CO)(O[C@H]2O[C@H](CO)[C@@H](O)[C@H](O)[C@H]2O)[C@@H](O)[C@@H]1O [Compound I-7]: 0.0
- CCCCC/C=C\C/C=C\CCCCCCCC(=O)OCC(COC(=O)CCC(=O)OCCNC(=O)CCCCCCCCCCCCCCC)OC(=O)CCCCCCC/C=C\C/C=C\CCCCC (centres unmarked) [Compound I-13]: 0.0
- CCCCCCCCCCCCCCCC(=O)NCCOC(=O)CCC(=O)OCC(O)CO (centres unmarked) [Compound I-9]: 0.0
- CCCCC/C=C\C/C=C\CCCCCCCC(=O)OCCNC(=O)CCCCCCCCCCCCCCC [Compound I-6]: 1.0
- CC/C=C\C/C=C\C/C=C\C/C=C\C/C=C\CCCC(=O)OCCNC(=O)CCCCCCCCCCCCCCC [Compound I-5]: 1.0
- CCCCCCCCCCCCCCCC(=O)NCCOC(=O)CCC(=O)OCC(COC(=O)CCCCCCC)OC(=O)CCCCCCC (centres unmarked) [Compound I-3, PEA-Succinate-Glycerol-Di-Caprylic]: 1.0
- CCCCCCCCCCCCCCCC(=O)NCCOC(=O)CCC [Compound I-2]: 0.0
